Recorded measurements of GI50, drug alone, one per entry
# Tested on: ACHN
# method-notes: GI50, drug alone; higher = less potent
# measurement-parameters: treatment: drug alone; 5 days

Some solved entries appear below for comparison.
{"compound": "Cc1cnc(NC(=O)Nc2cc(Br)c(C)cc2OC[C@@H]2CNCCO2)cn1", "result": "161 nM"}
{"compound": "CCN(CC)CCNC(=O)c1c(C)[nH]c(/C=C2\\C(=O)Nc3ccc(F)cc32)c1C.O=C(O)C[C@H](O)C(=O)O [Sunitinib Malate (Sutent)]", "result": "650 nM"}
{"compound": "FC(F)c1nc2ccccc2n1-c1nc(N2CCOCC2)nc(N2CCOCC2)n1 [ZSTK474]", "result": "699 nM"}

GI50, drug alone lookup needed for COc1cc(Nc2ncc(F)c(Nc3ccc4c(n3)N(COP(=O)([O-])[O-])C(=O)C(C)(C)O4)n2)cc(OC)c1OC.[Na+].[Na+] , thanks.
973 nM

GI50, drug alone lookup needed for N#Cc1c(O)c2c(-c3ccc(-c4ccccc4O)cc3)csc2[nH]c1=O , thanks.
> 10000 nM

GI50, drug alone lookup needed for Cc1cc(CN2CCN(c3c(Br)cnc4[nH]c(-c5ccc(N6CCN(C)CC6)cc5)nc34)CC2)no1 , thanks.
732 nM

GI50, drug alone lookup needed for Cc1nc(NC(=O)N2CCC[C@H]2C(N)=O)sc1-c1ccnc(C(C)(C)C(F)(F)F)c1 [BYL719] , thanks.
8550 nM
